- protocol: Cmax in CD-1 mouse at 20 mg/kg administered via oral gavage by LC-MS analysis
- Type: ADME, organism-based
- Parameters: dose 20 mg/kg, route oral
- measurementConditions: in vivo
measuredQuantity: Cmax (ng/mL)
Provide only the numeric value, understood in ng/mL.

Fill in the blank: the reported Cmax of CN1CC[C@@H](N2C(=O)S/C(=C\c3ccc4c(cnn4Cc4ccc(Cl)cc4C(F)(F)F)c3)C2=O)[C@H](F)C1 is ____. 2000

====

- protocol: Cmax in Zucker rat sub-chronic fa/fa prediabetic model at 50 mg/kg, po qd for 26 days measured on day 26 post last dose
- Assay type: ADME, organism-based
- Parameters: dose 50 mg/kg, route oral
- measurementConditions: in vivo
measuredQuantity: Cmax (ng/mL)
Provide only the numeric value, understood in ng/mL.

Fill in the blank: the reported Cmax of CN1CC[C@@H](N2C(=O)S/C(=C\c3ccc4c(cnn4Cc4ccc(Cl)cc4C(F)(F)F)c3)C2=O)[C@H](F)C1 is ____. 7660
